test: NCI Yeast Anticancer Drug Screen. Data for the sgs1 mgt1 strain (AID 161);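 note: 0% = growth of cultures given vehicle only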; details: S. cerevisiae sgs1 mgt1 strain, at 50.0 µM (retest, dose inferred, filed as 5.0), stronger effect = higher value
The panel holds about 79,000 compounds, 15% with a hit somewhere; the sample as a whole holds those more often.
measurement_name: growth inhibition (%)
Note: unit % is implicit; provide only the numeric part.

Some entries whose results are on file:
[
  {
    "compound": "CCOP(=O)(Oc1ccc([N+](=O)[O-])cc1)c1ccccc1C(C)C (stereo unspecified)",
    "quantity_unit": "%",
    "growth inhibition": 92
  },
  {
    "compound": "O=[N+]([O-])c1oc2ccc3ccccc3c2c1CCO",
    "quantity_unit": "%",
    "growth inhibition": 98
  },
  {
    "compound": "O=[N+]([O-])/C=C/c1ccccc1",
    "quantity_unit": "%",
    "growth inhibition": 99
  },
  {
    "compound": "ClCCN(CCCl)CCN1c2ccccc2Sc2ccc3ccccc3c21",
    "quantity_unit": "%",
    "growth inhibition": 81
  }
]

Request: Reported growth inhibition for O=C(O)CCCC1CCCCC1 : what is it?
Result: 43

Request: // repeat for Nc1nc(N)c2c(Cl)c(CNc3ccc(C(=O)NC(CC(=O)O)C(=O)O)cc3)ccc2n1 (stereo unspecified) and report
Result: 50

Request: // repeat for CCOC(=O)C1([Se]c2ccccc2)CCCC1=O (stereo unspecified) and report
Result: 59

Request: // repeat for O=C(COc1ccc(Cl)c(Cl)c1)N(Cc1ccccc1)Cc1ccc[n+](Cc2ccc(Cl)cc2S(=O)(=O)F)c1 and report
Result: 62

Request: // repeat for CC(C)C1(NC(=O)C2C=C3c4cccc5[nH]cc(c45)CC3N(C)C2)OC2(O)C3CCCN3C(=O)C(Cc3ccccc3)N2C1=O (stereo unspecified) (tested in a mixture with another compound) and report
Result: 96

Request: // repeat for COc1cc2ccccc2c2cc([N+](=O)[O-])oc12 and report
Result: 76

Request: // repeat for CC/C(=C/c1ccc2c(c1)OCO2)[N+](=O)[O-] and report
Result: 99

Request: // repeat for N#CC(C#N)=Cc1ccc([N+](=O)[O-])s1 and report
Result: 98

Request: // repeat for CCCOc1ccc(/C=C/[N+](=O)[O-])cc1 and report
Result: 11

Request: // repeat for CCN(CC)CC(=O)O[C@]1(CC)C(=O)OCc2c1cc1n(c2=O)Cc2cc3ccccc3nc2-1 and report
Result: 97

Request: // repeat for COc1ccc(/C=C/[N+](=O)[O-])c(OC)c1OC and report
Result: 100

Request: // repeat for N=P(c1ccccc1)(c1ccccc1)c1ccccc1.[O]=[Cr](=[O])([OH])[O][Cr](=[O])(=[O])[OH] and report
Result: 91

Request: // repeat for C=C1C(C)C2C(Cc3ccccc3)NC(=O)C23C(OC(C)=O)C=CC(C)(O)C(=O)C(C)C/C=C/C3C1O (stereo unspecified) and report
Result: 97

Request: // repeat for C[C@]12CC/C(=N\OC(=O)Nc3ccccc3)C=C1CC[C@@H]1C2CC[C@@]2(C)C1CC[C@@H]2OC(=O)Nc1ccccc1 (stereo partly specified) and report
Result: 86

---

Recorded measurements of growth inhibition, one per entry
assay: NCI Yeast Anticancer Drug Screen. Data for the mlh1 rad18 strain (AID 175); conditions: S. cerevisiae mlh1 rad18 strain growth inhibition; at 50.0 µM; stronger effect = higher value
About 79,000 compounds went through this panel and 15% of them were active in at least one assay; those are over-represented in the sample as a whole.
Note: unit % is implicit; provide only the numeric part.

Request: Reported growth inhibition for Cc1c(N)nc([C@H](CC(N)=O)NC[C@H](N)C(N)=O)nc1C(=O)N[C@H](C(=O)N[C@H](C)[C@@H](O)CC(=O)N[C@H](C(=O)NC(O[C@@H]1O[C@@H](C)[C@@H](N)[C@@H](O)[C@H]1O)C(O)c1nc(-c2nc(C(=O)NCCCCN)cs2)cs1)[C@@H](C)O)[C@@H](O[C@@H]1O[C@@H](CO)[C@@H](O)[C@H](O)[C@@H]1O[C@H]1O[C@H](CO)[C@@H](O)[C@H](OC(N)=O)[C@@H]1O)c1c[nH]cn1 (some centres not stated) : what is it?
Result: 90.2

Request: // repeat for O=S(=O)(c1ccccc1)N1C2C3CCC(CC3)C21 (configuration not stated) and report
Result: 1.5

---

Recorded measurements of growth inhibition, one per entry
experiment: NCI Yeast Anticancer Drug Screen. Data for the rad50 strain (AID 155);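 note: 0% = growth of vehicle-only cultures of the same strain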; settings: S. cerevisiae rad50 strain growth inhibition; at 50.0 µM (retest, dose inferred, filed as 5.0); stronger effect = higher value
The panel holds about 79,000 compounds, 15% with a hit somewhere; the sample as a whole holds those more often. Active and inactive are the calls of the source. Rule as the data show it: active = growth inhibition above about 70%; inactive = the rest.

Some entries whose results are on file:
[
  {
    "molecule": "FC(F)(F)C1(C(F)(F)F)O[Te]2(OC1(C(F)(F)F)C(F)(F)F)OC(C(F)(F)F)(C(F)(F)F)C(C(F)(F)F)(C(F)(F)F)O2",
    "meas_value": "79% (active)"
  },
  {
    "molecule": "Cn1c(=O)c2[nH]cnc2n(C)c1=O.[CH2-]C(Cc1cccc2cc(C(=O)O)c(=O)oc12)OC.[Hg+2].[OH-] (centres undefined)",
    "meas_value": "6% (inactive)"
  },
  {
    "molecule": "N#C[S-].[Ce+3].c1ccc(-c2ccccn2)nc1.c1ccc(-c2ccccn2)nc1.c1ccc(-c2ccccn2)nc1",
    "meas_value": "98% (active)"
  }
]

Request: Reported growth inhibition for Oc1cccc2cccnc12 (tested in a mixture with another compound) : what is it?
Result: 2% (inactive)

---

assay: NCI Yeast Anticancer Drug Screen. Data for the rad18 strain (AID 177); conditions: S. cerevisiae rad18 mutant growth inhibition; at 1.2 µM; stronger effect = higher value
Compounds without any hit were thinned out: in the full panel of roughly 79,000, 15% have a hit. Calls of active or inactive are those of the source. Cut-off read from the data, not from the text of the source: active = growth inhibition above about 70%; inactive = the rest.
Recorded measurements of growth inhibition, one per entry

[
  {
    "molecule": "COc1ccc(OC)c(/C=C/[N+](=O)[O-])c1",
    "measurement_name": "growth inhibition",
    "meas_value": "5% (inactive)"
  },
  {
    "molecule": "CCC1(O)C(=O)OCc2c1cc1n(c2=O)Cc2cc3ccccc3nc2-1 (stereo not drawn)",
    "measurement_name": "growth inhibition",
    "meas_value": "-6% (inactive)"
  },
  {
    "molecule": "CN(N=O)C(=O)NNC(=O)N(C)N=O",
    "measurement_name": "growth inhibition",
    "meas_value": "71% (active)"
  },
  {
    "molecule": "CC1=C(N2CC2)C(=O)c2ccccc2C1=O",
    "measurement_name": "growth inhibition",
    "meas_value": "36% (inactive)"
  },
  {
    "molecule": "CCCCCCCCCCCCCCCCP(=O)(O)OCC(N)C(=O)O (stereo not drawn)",
    "measurement_name": "growth inhibition",
    "meas_value": "-3% (inactive)"
  }
]

Request: Reported growth inhibition for COc1cccc2c1C(=O)c1c(O)c3c(c(O)c1C2=O)C[C@@](O)(C(C)=O)C[C@@H]3OC1CC(N)C(OC2CC(O)C(O)C(C)O2)C(C)O1 (stereo partly drawn) : what is it?
Result: -8% (inactive)

Request: // repeat for CC1CCCN(CCc2ccccc2)CC1 (stereo not drawn) and report
Result: 3% (inactive)

Request: // repeat for CC[C@]1(O)CC(OC2CC(N(C)C)C(O)C(C)O2)c2c(cc3c(c2O)C(=O)c2c(O)cccc2C3=O)[C@@H]1C(=O)OC (stereo partly drawn) and report
Result: 6% (inactive)

Request: // repeat for C=C[C@H]1CN2CC[C@H]1C[C@@H]2[C@@H](O)c1ccnc2ccccc12 and report
Result: -2% (inactive)

Request: // repeat for Nc1nnc(N)n1-n1c(N)nnc1N and report
Result: 0% (inactive)

Request: // repeat for O=C(O)CCCc1cc(I)c(N(CCCl)CCCl)c(I)c1 and report
Result: -63% (inactive)

Request: // repeat for CCN(CCCl)CCCCNc1c2ccccc2nc2ccc(OC)cc12 and report
Result: 66% (inactive)

Request: // repeat for CC1=C(O)C(=O)C=C2C1=CC=C1[C@@]2(C)CCC2(C)[C@@H]3C[C@@H](C)C(=O)C[C@]3(C)CC[C@]12C (stereo partly drawn) and report
Result: 9% (inactive)

Request: // repeat for COC1C(O)C(C)OC(OC2C(Oc3cccc4c(O)c5c(=O)oc6ccc(C)c7c(=O)oc(c34)c5c67)OC(C)C(O)C2O)C1O (stereo not drawn) and report
Result: 6% (inactive)

Request: // repeat for Oc1ccc2nc3ccccc3nc2c1 and report
Result: -3% (inactive)

Request: // repeat for Nc1ccccc1C(=O)OCCc1ccccc1 and report
Result: -58% (inactive)

Request: // repeat for Br[Se]c1ccccn1 and report
Result: 1% (inactive)

Request: // repeat for [N-]=[N+]=C1C(Cl)=C(Cl)C(Cl)=C1Cl and report
Result: 3% (inactive)

Request: // repeat for Cn1cc(NC(=O)c2cc(NC(=O)CN=C(N)N)cn2C)cc1C(=O)NCCC(=N)N and report
Result: -4% (inactive)
